- test_target: C1-C8, C3-C6 hepcidin variant (human)
- protocol_description: BIAcore: 1 nM antibody preincubated with 10 nM of this hepcidin form in solution, then run over immobilized rhHepc surface; % = free antibody still binding the surface (low % = strong binding to the solution form)
readout: Binding to Hepcidin Surface (%)
Numbers only; they are read as %.

binder: murine anti-human hepcidin monoclonal antibody 2.7 (antibody, V domains shown) VH: QIQLVQSGPELKKPGETVKISCKASGYTFTTYGMSWVKQAPGKGLKWMGWINTYSGVPTYADDFKGRFAFSLETSASTAYLQINNLKNEDTATYFCGRDHYYGEVAYWGQGTLVTVSA VL: DIVLTQSPASLAVSLGQRATISCRASESVDSYGNSFMHWYQQKPGQPPKLLIYRASNLESGIPARFSGSGSRTDFTLTINPVEADDVATYYCHQSNEEYTFGGGTKLEIK
uom: %
numeric_readout: 3
//
binder: rat anti-human hepcidin monoclonal antibody R9 (antibody, V domains shown) VH: QVTLKESGPGILQPSQTLSLTCSFSGFSLSTSGICVSWIRQPSGKGLEWLATICWEDSKGYNPSLKNRLTISKDTSNNQAFLKITSVDTADTAIYYCARPLNYGGYSELELDYWGQGVMVTVSS VL: DIQMTQSPSLLSASVGDRVTLSCKASQNIYKYLNWYQQKLGEAPKLLIYYTNSLQTGIPSRFSGSGSGTDFTLTISSLQPEDVATYYCYQYNSGPTFGAGTKLELK
uom: %
numeric_readout: 63
//
binder: murine anti-human hepcidin monoclonal antibody Ab43 (antibody, V domains shown) VH: QIQLVQSGPELKKPGETVKISCKASGYTFTTYGMSWVKQAPGKGLKWMGWINTYSGVPTYADDFKGRFAFSLETSASTAYLQINNLKNEDTATYFCASLWYYGRAFDYWGQGTTLTVSS VL: NIVLTQSPASLAVSLGQRATISCRASESVDSYGNSFMHWYQQKPGQPPKLLIYLASNLESGVPARFSGSGSRTDFTLTIDPVEADDAATYYCQQNNEDRTFGGGTKLEIK
uom: %
numeric_readout: 25

// recorded Binding to Hepcidin Surface (%) for murine anti-human hepcidin monoclonal antibody 2.41 (antibody, V domains shown) VH: QIQLVQSGPELKKPGETVKISCKASGYTFTTYGMSWVKQAPGKGLKWMGWINTSSGVPTYADDFMGRFAFSLETSASTAYLQINNLKNEDTATYFCARDRYYGEVAYWGQGTLVTVSA VL: DIVLTQSPASLAVSLGQRATISCRASESVDSFGNSFMHWYQLKPGQPPKLLIYRASNLESGIPARFSGSGSRTDFTLTINPVEADDVAIYYCQQSNEEYTFGGGTKLEIK : 1
